Sourced from patent US12441768B2

Molecular target: β-catenin (Homo sapiens)
Sequence (P35222 1-781): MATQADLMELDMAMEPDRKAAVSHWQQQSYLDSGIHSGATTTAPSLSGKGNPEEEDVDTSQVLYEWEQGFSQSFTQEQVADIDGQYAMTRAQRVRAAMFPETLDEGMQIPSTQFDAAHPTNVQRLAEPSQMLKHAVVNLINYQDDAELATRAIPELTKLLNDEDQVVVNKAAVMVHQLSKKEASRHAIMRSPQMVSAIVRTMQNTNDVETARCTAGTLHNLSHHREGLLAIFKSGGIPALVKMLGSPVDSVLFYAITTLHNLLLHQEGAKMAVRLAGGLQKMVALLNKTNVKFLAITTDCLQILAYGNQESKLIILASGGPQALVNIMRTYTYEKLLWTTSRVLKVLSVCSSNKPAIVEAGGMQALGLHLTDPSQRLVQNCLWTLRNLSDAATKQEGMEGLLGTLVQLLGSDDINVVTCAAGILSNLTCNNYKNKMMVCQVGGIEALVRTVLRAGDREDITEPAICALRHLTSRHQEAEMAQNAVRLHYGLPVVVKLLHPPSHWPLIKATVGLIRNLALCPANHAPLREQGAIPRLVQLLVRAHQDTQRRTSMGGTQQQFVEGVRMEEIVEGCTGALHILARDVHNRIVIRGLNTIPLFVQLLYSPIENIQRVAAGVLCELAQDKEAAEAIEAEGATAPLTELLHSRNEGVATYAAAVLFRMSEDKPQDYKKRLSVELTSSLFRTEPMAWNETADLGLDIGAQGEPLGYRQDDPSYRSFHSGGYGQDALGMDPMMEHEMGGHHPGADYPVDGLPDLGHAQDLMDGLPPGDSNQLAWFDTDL
Assay: KD50 measurement using competitive fluorescence polarization (FP) with labelled TCF4
Assay type: binding
Conditions: fluorescence polarization, β-catenin
Where a SMILES comes first, the peptide text is derived from it.
ASSAY_METRIC: β-Cat FP Hill slope
Numbers only.

Here is how some compounds turned out for β-Cat FP Hill slope.
Provide β-Cat FP Hill slope, recorded with β-catenin (Homo sapiens), of CC[C@H](C)[C@@H]1NC(=O)[C@H](CC(C)C)NC(=O)[C@H](Cc2ccccc2)NC(=O)[C@H](Cc2c[nH]c3ccccc23)NC(=O)[C@@H](NC(C)=O)CCCCNC(=O)CC[C@@H](C(=O)O)NC(=O)[C@H](Cc2c[nH]c3ccccc23)NC(=O)[C@H](Cc2ccccc2)NC(=O)[C@H](CO)NC1=O [compound 199] (HELM PEPTIDE1{[ac].K.W.F.L.I.S.F.W.E}$PEPTIDE1,PEPTIDE1,2:R3-10:R3$$$V2.0)
0.7

State the measured β-Cat FP Hill slope (β-catenin (Homo sapiens)) of CC[C@H](C)[C@H](NC(=O)[C@H](CC(C)C)NC(=O)[C@H](Cc1ccccc1)NC(=O)[C@@H](N)Cc1c[nH]c2ccccc12)C(=O)N[C@@H](CO)C(=O)N[C@@H](Cc1ccccc1)C(=O)N[C@@H](Cc1c[nH]c2ccccc12)C(N)=O [compound 98] (H-WFLISFW-NH2)
1.02

Proceed to the following item.
Give β-Cat FP Hill slope for this entry on β-catenin (Homo sapiens): CC[C@H](C)[C@H](NC(=O)[C@H](CC(C)C)NC(=O)[C@H](Cc1ccccc1)NC(=O)[C@H](Cc1c[nH]c2ccccc12)NC(=O)[C@@H](N)CCSC)C(=O)N[C@@H](CS)C(=O)N[C@@H](Cc1c[nH]cn1)C(=O)N[C@@H](Cc1c[nH]c2ccccc12)C(=O)NCC(=O)O [compound 145] (H-MWFLICHWG-OH)
0.7
